Tested on: 186277-243-T-J2-PDC complex spheroid viability
Test: Anticancer human tumor 186277-243-T-J2-PDC patient-derived colon adenocarcinoma cell line growth inhibition [GQUAD]
Settings: second compound 0.316 µM; first compound 0.0316 µM; hits give low values
From the text: DNA G-quadruplex Stabilizer Agents in Combinations in Complex Spheroids A high-throughput screen of multi-cell type tumor spheroids was designed to identify active combinations of DNA G-quadruplex stabilizer agents and targeted small molecules. […] Compounds. […] If the clinical Cmax for an agent had not been determined, the highest concentration tested was 10 microM. […]
Sorting guide: entries reporting viability, T/C beneath 80% go in the true (1) pile, the rest go in the false (0) pile.

{"Compound": "CC(C)n1c(=O)n(C)c2cnc3cc(F)c(-c4ccc(OCCCN5CCCCC5)nc4)cc3c21 + Cc1[nH]c2ccc(F)cc2c1-c1nc2c3cccnc3c3ncccc3c2[nH]1", "Class assignment": "false (0)"}
{"Compound": "C=CCn1c(=O)c2cnc(Nc3ccc(N4CCN(C)CC4)cc3)nc2n1-c1cccc(C(C)(C)O)n1 + Cc1cnc(CNC(=O)c2c(=O)c3ccc(N4CCCN(C)CC4)nc3n3c2sc2ccccc23)cn1", "Class assignment": "true (1)"}
{"Compound": "CC1COCCN1c1cc(C2(S(C)(=N)=O)CC2)nc(-c2ccnc3[nH]ccc23)n1 (stereo unspecified) + Cc1[nH]c2ccc(F)cc2c1-c1nc2c3cccnc3c3ncccc3c2[nH]1", "Class assignment": "false (0)"}
{"Compound": "O=c1[nH]cc(F)c(=O)[nH]1 + CN(C)c1ccc(Nc2c3ccc(NC(=O)CCN4CCCC4)cc3nc3cc(NC(=O)CCN4CCCC4)ccc23)cc1", "Class assignment": "false (0)"}
{"Compound": "O=c1[nH]cc(F)c(=O)[nH]1 + Cc1[nH]c2ccc(F)cc2c1-c1nc2c3cccnc3c3ncccc3c2[nH]1", "Class assignment": "false (0)"}
{"Compound": "Nc1ccn(C2OC(CO)C(O)C2(F)F)c(=O)n1 (stereo unspecified) + Cc1cnc(CNC(=O)c2c(=O)c3ccc(N4CCCN(C)CC4)nc3n3c2sc2ccccc23)cn1", "Class assignment": "true (1)"}
{"Compound": "CC1COCCN1c1cc(C2(S(C)(=N)=O)CC2)nc(-c2ccnc3[nH]ccc23)n1 (stereo unspecified) + CN(C)c1ccc(Nc2c3ccc(NC(=O)CCN4CCCC4)cc3nc3cc(NC(=O)CCN4CCCC4)ccc23)cc1", "Class assignment": "false (0)"}
{"Compound": "O=C(c1cc(Cc2n[nH]c(=O)c3ccccc23)ccc1F)N1CCN(C(=O)C2CC2)CC1 + Cc1[nH]c2ccc(F)cc2c1-c1nc2c3cccnc3c3ncccc3c2[nH]1", "Class assignment": "false (0)"}
{"Compound": "CC(C)(O)C1CCC(Nc2ccc3ncc(-c4cccc(C(F)(F)F)c4)n3n2)CC1 (stereo unspecified) + CN(C)c1ccc(Nc2c3ccc(NC(=O)CCN4CCCC4)cc3nc3cc(NC(=O)CCN4CCCC4)ccc23)cc1", "Class assignment": "false (0)"}
{"Compound": "Nc1ccn(C2OC(CO)C(O)C2(F)F)c(=O)n1 (stereo unspecified) + CN(C)c1ccc(Nc2c3ccc(NC(=O)CCN4CCCC4)cc3nc3cc(NC(=O)CCN4CCCC4)ccc23)cc1", "Class assignment": "true (1)"}
{"Compound": "C#Cc1c(F)ccc2cc(O)cc(-c3ncc4c(N5CC6CCC(C5)N6)nc(OCC56CCCN5CC(F)C6)nc4c3F)c12 (stereo unspecified) + CN(C)c1ccc(Nc2c3ccc(NC(=O)CCN4CCCC4)cc3nc3cc(NC(=O)CCN4CCCC4)ccc23)cc1", "Class assignment": "true (1)"}

* * *

test system: 186277-243-T-J2-PDC complex spheroid viability; assay: Anticancer human tumor 186277-243-T-J2-PDC cell line growth inhibition [GQUAD]; details: second compound 0.0316 µM; first compound 0.316 µM; hits give low values;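 note: spheroids exposed to drugs for 7 days; 100% = DMSO vehicle control viability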
Measured parameter: viability, T/C

{"Molecule": "COc1cccc2c1C(=O)c1c(O)c3c(c(O)c1C2=O)CC(O)(C(=O)CO)CC3OC1CC(N)C(O)C(C)O1 (stereo not drawn) + Cc1[nH]c2ccc(F)cc2c1-c1nc2c3cccnc3c3ncccc3c2[nH]1", "Measured parameter": "viability, T/C", "Observed result": "95.9%"}
{"Molecule": "Nc1ccn(C2OC(CO)C(O)C2(F)F)c(=O)n1 (stereo not drawn) + Cc1cnc(CNC(=O)c2c(=O)c3ccc(N4CCCN(C)CC4)nc3n3c2sc2ccccc23)cn1", "Measured parameter": "viability, T/C", "Observed result": "12.3%"}
{"Molecule": "COc1ncnc(C2CC2)c1-c1ncc2cnn(Cc3ccc(-c4nc(C(F)(F)F)cn4C(C)C)cc3)c2n1 + Cc1cnc(CNC(=O)c2c(=O)c3ccc(N4CCCN(C)CC4)nc3n3c2sc2ccccc23)cn1", "Measured parameter": "viability, T/C", "Observed result": "86.6%"}

* * *

Each entry below lists one item and its recorded viability, T/C value.
tested on: 186277-243-T-J2-PDC complex spheroid viability; experiment: Anticancer human tumor 186277-243-T-J2-PDC cell line growth inhibition [GQUAD]; details: second compound 0.316 µM; first compound 0.0316 µM; hits give low values;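 note: spheroids exposed to drugs for 7 days; 100% = DMSO vehicle control viability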

{"Molecule": "C=CC(=O)N1CCN(c2nc(=O)n(-c3c(C)ccnc3C(C)C)c3nc(-c4c(O)cccc4F)c(F)cc23)C(C)C1 (stereo unspecified) + Cc1[nH]c2ccc(F)cc2c1-c1nc2c3cccnc3c3ncccc3c2[nH]1", "viability, T/C / %": 98.9}
{"Molecule": "C#Cc1c(F)ccc2cc(O)cc(-c3ncc4c(N5CC6CCC(C5)N6)nc(OCC56CCCN5CC(F)C6)nc4c3F)c12 (stereo unspecified) + Cc1cnc(CNC(=O)c2c(=O)c3ccc(N4CCCN(C)CC4)nc3n3c2sc2ccccc23)cn1", "viability, T/C / %": 23.8}
{"Molecule": "COc1cc(C2c3cc4c(cc3C(OC3OC5COC(C)OC5C(O)C3O)C3COC(=O)C23)OCO4)cc(OC)c1O (stereo unspecified) + Cc1[nH]c2ccc(F)cc2c1-c1nc2c3cccnc3c3ncccc3c2[nH]1", "viability, T/C / %": 94.6}
{"Molecule": "CC1COCCN1c1cc(C2(O)CC3CCC(C2)O3)c2cnn(-c3ccn[nH]3)c2n1 (stereo unspecified) + Cc1cnc(CNC(=O)c2c(=O)c3ccc(N4CCCN(C)CC4)nc3n3c2sc2ccccc23)cn1", "viability, T/C / %": 37.7}
{"Molecule": "CCCS(=O)(=O)Nc1ccc(F)c(C(=O)c2c[nH]c3ncc(-c4ccc(Cl)cc4)cc23)c1F + CN(C)c1ccc(Nc2c3ccc(NC(=O)CCN4CCCC4)cc3nc3cc(NC(=O)CCN4CCCC4)ccc23)cc1", "viability, T/C / %": 89.1}
{"Molecule": "COc1ccc([C@@H](O)c2cc(-c3ncnc4cc(N5CCOCC5)ccc34)c(F)cc2Cl)nn1 + Cc1[nH]c2ccc(F)cc2c1-c1nc2c3cccnc3c3ncccc3c2[nH]1", "viability, T/C / %": 105}
{"Molecule": "O=C(NO)c1cnc(N2CCN(S(=O)(=O)c3ccc4ccccc4c3)CC2)nc1 + CN(C)c1ccc(Nc2c3ccc(NC(=O)CCN4CCCC4)cc3nc3cc(NC(=O)CCN4CCCC4)ccc23)cc1", "viability, T/C / %": 105}
{"Molecule": "O=C(NO)c1cnc(N2CCN(S(=O)(=O)c3ccc4ccccc4c3)CC2)nc1 + Cc1cnc(CNC(=O)c2c(=O)c3ccc(N4CCCN(C)CC4)nc3n3c2sc2ccccc23)cn1", "viability, T/C / %": 64.5}
{"Molecule": "COc1ncnc(C2CC2)c1-c1ncc2cnn(Cc3ccc(-c4nc(C(F)(F)F)cn4C(C)C)cc3)c2n1 + Cc1[nH]c2ccc(F)cc2c1-c1nc2c3cccnc3c3ncccc3c2[nH]1", "viability, T/C / %": 104}
{"Molecule": "CCCS(=O)(=O)Nc1ccc(F)c(C(=O)c2c[nH]c3ncc(-c4ccc(Cl)cc4)cc23)c1F + Cc1cnc(CNC(=O)c2c(=O)c3ccc(N4CCCN(C)CC4)nc3n3c2sc2ccccc23)cn1", "viability, T/C / %": 63.6}
{"Molecule": "CC[C@@]1(O)C(=O)OCc2c1cc1n(c2=O)Cc2cc3c(CN(C)C)c(O)ccc3nc2-1 + Cc1[nH]c2ccc(F)cc2c1-c1nc2c3cccnc3c3ncccc3c2[nH]1", "viability, T/C / %": 89.8}

* * *

system: 186277-243-T-J2-PDC complex spheroid viability; assay: Anticancer human tumor 186277-243-T-J2-PDC cell line growth inhibition [GQUAD]; settings: second compound 10 µM; first compound 1 µM; hits give low values;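 note: spheroids exposed to drugs for 7 days; 100% = DMSO vehicle control viability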
Sorting guide: entries reporting viability, T/C beneath 90% go in the T pile, the rest go in the F pile.

{"Compound": "CC1COCCN1c1cc(C2(S(C)(=N)=O)CC2)nc(-c2ccnc3[nH]ccc23)n1 (stereo not given) + Cc1[nH]c2ccc(F)cc2c1-c1nc2c3cccnc3c3ncccc3c2[nH]1", "Class assignment": "T"}
{"Compound": "C=CC(=O)N1CCN(c2nc(=O)n(-c3c(C)ccnc3C(C)C)c3nc(-c4c(O)cccc4F)c(F)cc23)C(C)C1 (stereo not given) + Cc1cnc(CNC(=O)c2c(=O)c3ccc(N4CCCN(C)CC4)nc3n3c2sc2ccccc23)cn1", "Class assignment": "T"}
{"Compound": "O=c1[nH]cc(F)c(=O)[nH]1 + CN(C)c1ccc(Nc2c3ccc(NC(=O)CCN4CCCC4)cc3nc3cc(NC(=O)CCN4CCCC4)ccc23)cc1", "Class assignment": "F"}
{"Compound": "CC1COCCN1c1cc(C2(S(C)(=N)=O)CC2)nc(-c2ccnc3[nH]ccc23)n1 (stereo not given) + CN(C)c1ccc(Nc2c3ccc(NC(=O)CCN4CCCC4)cc3nc3cc(NC(=O)CCN4CCCC4)ccc23)cc1", "Class assignment": "T"}
